Biological target: human CYP4A11 (Homo sapiens (Human))
Assay: Inhibition test against 20-HETE producing enzyme CYP4A11 (luciferine derivative, luminescence)
Type: biochemical
Conditions: human CYP4A11, luciferine derivative, luminescence
Parameter: IC50 (nM)

Here is how some compounds turned out for IC50.
>>> val("CC(C)(CCNC(=O)c1cncc(COc2ccc(-c3ccn[nH]3)nc2)c1)C(=O)O")
510
>>> val("CNC(=O)C(C)(C)c1cccc(COc2ccc(-c3ccn[nH]3)nc2)c1")
39
>>> val("CC(C)(COc1ccc(COc2ccc(-c3ccn[nH]3)nc2)cn1)C(=O)O")
720

I: O=C(O)c1ncc2c(n1)CN(C(=O)c1cccc(COc3ccc(-c4ccn[nH]4)nc3)c1)C2
II: CC(C)(CCNC(=O)c1cccc(COc2ccc(-c3ccn[nH]3)nc2)c1)C(=O)O
III: O=C(NCC1(C(=O)O)CCOCC1)c1cccc(COc2ccc(-c3ccn[nH]3)nc2)c1
// ascending sort on recorded IC50 Show the ranking through the labels, in the order asked for.
II, III, I

I: O=C(O)C1(CCCCCCCCOc2ccc(-c3ccn[nH]3)nc2)CCCO1 (centres unmarked)
II: CC(C)(Oc1cc(CCOc2ccc(-c3ccn[nH]3)nc2)ccn1)C(=O)O
Which entry has a larger number for IC50, I or II ? Respond using the label that marks the chosen record.
II
(II: 1100 nM, I: 260 nM)

====

Target: human CYP4F2 (Homo sapiens (Human), UniProt P78329)
Sequence (P78329 5-520): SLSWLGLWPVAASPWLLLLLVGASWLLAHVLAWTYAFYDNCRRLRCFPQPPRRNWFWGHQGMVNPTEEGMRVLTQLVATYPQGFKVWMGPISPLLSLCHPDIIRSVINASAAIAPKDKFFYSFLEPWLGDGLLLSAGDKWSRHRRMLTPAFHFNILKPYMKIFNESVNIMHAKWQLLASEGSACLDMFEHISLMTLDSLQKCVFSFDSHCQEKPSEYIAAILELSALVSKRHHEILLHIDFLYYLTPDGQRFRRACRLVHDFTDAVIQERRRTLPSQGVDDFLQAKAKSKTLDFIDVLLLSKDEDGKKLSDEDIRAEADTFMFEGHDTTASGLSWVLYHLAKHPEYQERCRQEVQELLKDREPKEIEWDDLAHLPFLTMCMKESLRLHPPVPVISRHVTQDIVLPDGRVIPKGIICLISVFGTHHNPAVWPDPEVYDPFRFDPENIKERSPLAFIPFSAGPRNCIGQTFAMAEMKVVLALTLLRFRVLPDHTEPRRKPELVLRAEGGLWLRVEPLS
Experiment: Inhibition test against 20-HETE producing enzyme CYP4F2 (luciferine derivative, luminescence)
Format: biochemical
Conditions: E. coli membrane fraction expressing human CYP4F2, 2.5 μM luciferine derivative, room temperature 60 minutes
Parameter: IC50 (nM)

Here is how some molecules turned out for IC50.
>>> val("OC(Cc1cccc(COc2ccc(-c3ccn[nH]3)nc2)c1)C(F)(F)F (stereo not drawn)")
10
>>> val("O=C(O)Cc1cccc(CCOc2ccc(-c3ccn[nH]3)nc2)c1")
7800
>>> val("CC(C)(CCNS(=O)(=O)c1cccc(COc2ccc(-c3ccn[nH]3)nc2)c1)C(=O)O")
1500
>>> val("O=C(O)C1CC1c1cccc(COc2ccc(-c3ccn[nH]3)nc2)c1 (single isomer, unassigned) [Example 26-1]")
400
>>> val("O=C(O)Cc1ccc(COc2ccc(-c3ccn[nH]3)nc2)cc1")
15000
>>> val("O=C(O)c1ccc(COc2ccc(-c3ccn[nH]3)nc2)cc1F")
18000

P: O=C(O)c1ccnc(-c2cccc(COc3ccc(-c4ccn[nH]4)nc3)c2)c1
Q: O=C(O)C1CCN(S(=O)(=O)c2cccc(COc3ccc(-c4ccn[nH]4)nc3)c2)C1 (stereo not drawn)
R: CN(CCCCCCOc1ccc(-c2ccn[nH]2)nc1)C(=O)C1(C(=O)O)CCCC1
// ascending sort on recorded IC50 Show the ranking through the labels, in the order asked for.
R, P, Q
(R: 250 nM, P: 1300 nM, Q: 2000 nM)

====

Target: UniProt:P78329
Assay: Inhibition test against 20-HETE producing enzyme CYP4F2 (luciferine derivative, luminescence)
Type: biochemical
Settings: E. coli membrane fraction expressing human CYP4F2, 2.5 μM luciferine derivative, room temperature 60 minutes
Description: (1) Inhibition Test for Each Compound of the Present Invention Against 20-HETE Producing Enzymes (CYP4F2 and CYP4A11) […] A: Luminescence value with addition of compound B: Luminescence value without addition of compound and enzyme
pIC50: −log10 of the molar value.
Parameter: pIC50

Here is how some compounds turned out for pIC50.
>>> val("O=C(O)c1ccccc1CCCOc1ccc(-c2ccn[nH]2)nc1")
4.57
>>> val("O=C1CN(CCCCOc2ccc(-c3ccn[nH]3)nc2)C(=O)N1")
6.55
>>> val("OCc1cccc(COc2ccc(-c3ccn[nH]3)nc2)c1")
6.89

I: O=C(O)c1ccc(-c2cccc(COc3ccc(-c4ccn[nH]4)nc3)c2)cn1
II: O=C(O)C1CCC(COc2ccc(-c3ccn[nH]3)nc2)CC1 (stereo not drawn) [Example 1-42]
III: Oc1cccc(CCOc2ccc(-c3ccn[nH]3)nc2)c1
Ordering criterion: pIC50; begin with the maximum. Show the ranking through the labels, in the order asked for.
III, I, II
(III: 7.72, I: 6.74, II: 4.60)

====

Target: human CYP4F2 (Homo sapiens (Human), UniProt P78329)
Experiment: Inhibition test against 20-HETE producing enzyme CYP4F2 (luciferine derivative, luminescence)
Assay type: biochemical
Details: human CYP4F2, luciferine derivative, luminescence
pIC50: −log10 of the molar value.
Parameter: pIC50

Here is how some compounds turned out for pIC50.
>>> val("O=C(O)c1ccc(CNC(=O)c2cccc(COc3ccc(-c4ccn[nH]4)nc3)c2)cc1")
6.08
>>> val("O=C(N[C@@H](Cc1ccccc1)C(=O)O)c1cccc(COc2ccc(-c3ccn[nH]3)nc2)c1")
5.92
>>> val("CN(C)CCNC(=O)CCc1cccc(COc2ccc(-c3ccn[nH]3)nc2)c1")
6.55
>>> val("O=C(O)C1COc2ccc(CCOc3ccc(-c4ccn[nH]4)nc3)cc2C1 (stereo not shown)")
6.59
>>> val("O=C(O)C[C@H]1CCN(C(=O)c2cccc(COc3ccc(-c4ccn[nH]4)nc3)c2)C1")
5.85

I: O=C(NCC1(C(=O)O)CCCC1)c1cccc(COc2ccc(-c3ccn[nH]3)nc2)c1
II: O=C(O)C1CC1c1ccc(CCOc2ccc(-c3ccn[nH]3)nc2)cc1F (stereo not shown)
III: CN(C)C(=O)C1CC1c1cccc(COc2ccc(-c3ccn[nH]3)nc2)c1 (stereo not shown)
Ordering criterion: pIC50; begin with the maximum. Show the ranking through the labels, in the order asked for.
III, II, I
(III: 7.66, II: 6.92, I: 6.12)

1: O=C(O)c1nc2c(o1)CCN(C(=O)c1cccc(COc3ccc(-c4ccn[nH]4)nc3)c1)C2
2: O=C(O)C1CC1c1cccc(CCOc2ccc(-c3ccn[nH]3)nc2)c1 (stereo not shown)
3: O=C(O)C1CC1c1ccc(COc2ccc(-c3ccn[nH]3)nc2)cc1 (stereo not shown)
4: CC(C)(Oc1ccc(CCOc2ccc(-c3ccn[nH]3)nc2)cn1)C(=O)O
// ascending sort on recorded pIC50 Show the ranking through the labels, in the order asked for.
4, 3, 2, 1
(4: 4.64, 3: 5.92, 2: 6.49, 1: 7.27)

====

Molecular target: human CYP4A11 (Homo sapiens (Human), UniProt Q02928)
Sequence (Q02928 5-519): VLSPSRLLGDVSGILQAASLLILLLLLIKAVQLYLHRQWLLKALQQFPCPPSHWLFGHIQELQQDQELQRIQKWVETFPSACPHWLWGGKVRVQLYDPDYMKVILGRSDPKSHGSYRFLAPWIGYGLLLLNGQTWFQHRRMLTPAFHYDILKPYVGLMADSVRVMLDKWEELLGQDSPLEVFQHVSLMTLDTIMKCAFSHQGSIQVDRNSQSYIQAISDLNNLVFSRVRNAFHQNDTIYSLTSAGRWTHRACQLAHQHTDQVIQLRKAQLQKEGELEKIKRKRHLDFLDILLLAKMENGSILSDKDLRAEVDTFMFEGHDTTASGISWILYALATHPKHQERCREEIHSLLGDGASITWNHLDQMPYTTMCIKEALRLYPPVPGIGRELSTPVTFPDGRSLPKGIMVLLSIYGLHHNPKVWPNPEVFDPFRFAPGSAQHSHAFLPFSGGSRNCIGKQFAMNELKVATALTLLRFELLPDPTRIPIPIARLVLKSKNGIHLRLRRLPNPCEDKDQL
Test: Inhibition test against 20-HETE producing enzyme CYP4A11 (luciferine derivative, luminescence)
Type: biochemical
Details: E. coli membrane fraction expressing human CYP4A11, 60 μM luciferine derivative, room temperature 60 minutes
pIC50: −log10 of the molar value.
Parameter: pIC50

>>> val("O=C(O)C1(CCCCOc2ccc(-c3ccn[nH]3)nc2)CCC1 [Example 1-33]")
7.13
>>> val("O=C(O)c1ccc(CCOc2ccc(-c3ccn[nH]3)nc2)cc1 [Example 1-5]")
6.82
>>> val("O=C(O)C1(CCCCCCOc2ccc(-c3ccn[nH]3)nc2)CCCCC1 [Example 1-44]")
6.96
>>> val("O=C(O)[C@H]1C[C@](O)(c2cc(COc3ccc(-c4ccn[nH]4)nc3)ccc2F)C1 [Example 28-2]")
7.00
>>> val("NC(=O)c1cccc(COc2ccc(-c3ccn[nH]3)nc2)c1 [Example 53-1]")
6.96

====

Molecular target: human CYP4A11 (Homo sapiens (Human), UniProt Q02928)
Assay: Inhibition test against 20-HETE producing enzyme CYP4A11 (luciferine derivative, luminescence)
Type: biochemical
Details: E. coli membrane fraction expressing human CYP4A11, 60 μM luciferine derivative, room temperature 60 minutes
pIC50: −log10 of the molar value.
Parameter: pIC50

>>> val("O=C(O)c1ccc2c(c1)C(CCOc1ccc(-c3ccn[nH]3)nc1)CCC2 (stereo not shown)")
7.14
>>> val("CC(C)(CCc1cccc(COc2ccc(-c3ccn[nH]3)nc2)n1)C(=O)O")
6.38

I: O=C(O)c1cnn(-c2cccc(COc3ccc(-c4ccn[nH]4)nc3)c2)c1
II: CC(C)(Oc1cccc(COc2ccc(-c3ccn[nH]3)nc2)n1)C(=O)O
Param metric = pIC50; output whichever of I , II has the minimum value. Respond using the label that marks the chosen record.
II
(II: 6.48, I: 7.59)

A: O=C(O)C12CCC(COc3ccc(-c4[nH]ncc4Cl)nc3)(CC1)CC2
B: O=C(O)Cn1cc(-c2cccc(COc3ccc(-c4ccn[nH]4)nc3)c2)ccc1=O
C: CS(=O)(=O)N[C@H]1CC[C@@H](Oc2ccc(-c3ccn[nH]3)nc2)CC1
D: CC(Oc1ccc(-c2ccn[nH]2)nc1)c1ccc(C(=O)O)cc1 (stereo not shown)
E: O=C(O)c1ccc(CCCCOc2ccc(-c3ccn[nH]3)nc2)cn1
// ascending sort on recorded pIC50 Show the ranking through the labels, in the order asked for.
C, D, B, E, A
(C: 5.17, D: 6.60, B: 6.92, E: 7.38, A: 7.80)
